pIC50: −log10 of the molar value.
// compounds with pIC50 on PIK3CB (Human), multi-source literature

// known answers, use as guide
[[record]]
compound = "Cc1cccc2cc(Cn3nc(-c4cc(O)cc(F)c4)c4c(N)ncnc43)n(-c3ccccc3Cl)c(=O)c12"
reported_result = "> 6.00"

[[record]]
compound = "C[C@H](Nc1ncnc2scnc12)c1cc2cccc(-c3cnn(C)c3)c2c(=O)n1C"
reported_result = "5.00 to 6.00"

[[record]]
compound = "Nc1nc2cc(-c3ccc4ncc(NCCN5CCCC5)nc4c3)ccc2o1"
reported_result = "> 6.00"


The compound `C[C@@H]1CN(c2cnc3ccc(-c4ccc5oc(N)nc5c4)cc3n2)C[C@H](C)O1` , tested on PIK3CB (Human), showed pIC50 of < 5.00

Sample CC1CN(C2CN(c3cnc4ccc(-c5ccc6oc(N)nc6c5)nc4n3)C2)CCO1 (centres unmarked) , system: PIK3CB (Human). Its pIC50 is < 5.00

Simply: `Cc1cc(-c2ccc3nc(N)oc3c2)cn2c(CCN3CCN(C)CC3)nnc12` , PIK3CB (Human), pIC50 = < 5.00

Known value: PIK3CB (Human) pIC50 of the compound `Cc1csc2nc(Cn3nc(C#C[C@@H](C)O)c4c(N)ncnc43)n(-c3ccccc3F)c(=O)c12` equals < 5.00

Hey, PIK3CB (Human) data for `Cc1cccc2cc(Cn3nc(-c4ccc(O)c(F)c4)c4c(N)ncnc43)n(-c3ccccc3F)c(=O)c12` : pIC50 came out at < 5.00
